Where do the numbers come from? From PubChem BioAssay (EPA / NIEHS).

# Read-out: Apoptosis regulator Bcl-2 (Homo sapiens) (UniProt P10415)
# Sequence (P10415 whole entry, looked up): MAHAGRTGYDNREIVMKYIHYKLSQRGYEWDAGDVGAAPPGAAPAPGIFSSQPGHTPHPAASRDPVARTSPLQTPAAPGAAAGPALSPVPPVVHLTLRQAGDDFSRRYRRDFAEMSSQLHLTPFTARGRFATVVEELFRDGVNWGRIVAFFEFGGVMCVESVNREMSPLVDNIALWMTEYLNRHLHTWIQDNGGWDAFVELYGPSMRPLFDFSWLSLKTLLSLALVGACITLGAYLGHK
# assay.procedure: LTEA_HepaRG_BCL2: Life Technologies and Expression Analysis (LTEA) Assay for Bcl-2 gene using HepaRG (AID 2283475);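 further: BCL2 transcript by TaqMan qRT-PCR normalised to ACTB GAPDH and POLR2A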
# experimental.parameters: mRNA level, 48 h; actives raise or lower the signal
Activity calls are given as the source filed them. How the source made its calls: active means hit-call score of the fitted dose curve at least 0.9, where 1 is the maximum; inactive means score below 0.9.
Select the correct class. Options are yes = active, no = inactive and nothing else.

{"compound": "COP(N)(=O)SC (configuration not stated)", "assigned.class": "no"}
{"compound": "CCNc1nc(Cl)nc(NCC)n1", "assigned.class": "no"}
{"compound": "OC(c1ccc(Cl)cc1)(c1cncnc1)c1ccccc1Cl (configuration not stated)", "assigned.class": "yes"}
{"compound": "Cc1c(F)c(F)c(COC(=O)C2C(/C=C(\\Cl)C(F)(F)F)C2(C)C)c(F)c1F (configuration not stated)", "assigned.class": "no"}
{"compound": "Oc1ccccc1-c1ccccc1", "assigned.class": "no"}

Dear all, I need the recorded test outcome for CCOC(=O)C(Cl)Cc1cc(-n2nc(C)n(C(F)F)c2=O)c(F)cc1Cl (configuration not stated) , thank you. no

Dear all, I need the recorded test outcome for CC1=C(C(=O)Nc2ccccc2)SCCO1 , thank you. no
